# study_system: Inactive tyrosine-protein kinase PEAK1 (Homo sapiens, UniProt Q9H792)
# Sequence (Q9H792 whole entry): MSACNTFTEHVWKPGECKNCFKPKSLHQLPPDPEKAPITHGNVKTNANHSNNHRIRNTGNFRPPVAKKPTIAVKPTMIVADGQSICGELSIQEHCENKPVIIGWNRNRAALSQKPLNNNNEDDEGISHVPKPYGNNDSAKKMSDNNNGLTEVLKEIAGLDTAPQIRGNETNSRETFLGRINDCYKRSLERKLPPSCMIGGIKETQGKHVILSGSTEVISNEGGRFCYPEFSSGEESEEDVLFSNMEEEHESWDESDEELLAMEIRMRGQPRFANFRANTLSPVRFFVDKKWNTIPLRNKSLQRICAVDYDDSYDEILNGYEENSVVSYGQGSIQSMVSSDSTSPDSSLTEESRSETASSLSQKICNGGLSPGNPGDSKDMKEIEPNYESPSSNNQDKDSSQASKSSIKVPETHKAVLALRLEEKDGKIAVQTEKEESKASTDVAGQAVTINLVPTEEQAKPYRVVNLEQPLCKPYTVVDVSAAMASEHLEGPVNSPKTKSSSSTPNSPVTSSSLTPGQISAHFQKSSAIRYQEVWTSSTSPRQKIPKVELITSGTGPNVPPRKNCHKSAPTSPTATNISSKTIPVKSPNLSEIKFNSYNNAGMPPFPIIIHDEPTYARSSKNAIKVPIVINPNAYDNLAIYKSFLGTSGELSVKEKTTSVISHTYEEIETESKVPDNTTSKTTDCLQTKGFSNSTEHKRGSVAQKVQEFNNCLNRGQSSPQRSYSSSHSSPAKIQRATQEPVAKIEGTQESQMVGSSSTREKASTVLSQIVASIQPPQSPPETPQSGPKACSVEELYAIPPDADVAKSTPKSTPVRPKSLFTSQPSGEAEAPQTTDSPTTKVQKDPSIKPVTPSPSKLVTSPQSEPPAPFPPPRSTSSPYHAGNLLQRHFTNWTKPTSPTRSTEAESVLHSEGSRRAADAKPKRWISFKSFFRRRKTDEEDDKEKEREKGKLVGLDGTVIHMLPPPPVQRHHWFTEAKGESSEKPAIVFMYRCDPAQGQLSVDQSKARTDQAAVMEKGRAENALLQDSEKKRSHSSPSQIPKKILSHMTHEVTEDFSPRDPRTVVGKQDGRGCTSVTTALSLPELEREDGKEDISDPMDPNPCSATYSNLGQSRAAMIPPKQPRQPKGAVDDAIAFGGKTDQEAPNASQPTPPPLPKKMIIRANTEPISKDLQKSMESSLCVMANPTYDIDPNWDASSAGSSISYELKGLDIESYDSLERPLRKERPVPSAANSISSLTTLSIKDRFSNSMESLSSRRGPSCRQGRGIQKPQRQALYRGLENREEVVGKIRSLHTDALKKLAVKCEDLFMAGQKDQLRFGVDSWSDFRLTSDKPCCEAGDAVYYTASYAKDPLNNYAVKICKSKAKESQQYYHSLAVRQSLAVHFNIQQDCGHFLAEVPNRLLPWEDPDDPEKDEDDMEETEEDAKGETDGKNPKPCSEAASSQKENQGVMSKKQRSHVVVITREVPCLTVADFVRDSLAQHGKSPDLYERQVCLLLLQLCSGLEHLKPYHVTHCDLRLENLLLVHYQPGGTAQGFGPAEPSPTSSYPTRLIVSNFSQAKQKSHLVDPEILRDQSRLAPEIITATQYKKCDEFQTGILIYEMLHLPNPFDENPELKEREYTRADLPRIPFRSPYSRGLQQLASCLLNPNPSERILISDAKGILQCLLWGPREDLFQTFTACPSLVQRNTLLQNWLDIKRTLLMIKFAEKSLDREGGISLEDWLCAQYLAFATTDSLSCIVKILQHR
# protocol_text: Inhibition of PEAK1 (unknown origin)
observation_type: pIC50
Bear in mind: pIC50 is minus log10 of a mol/L concentration; give just that figure.

Request: Bench note: what pIC50 did O=C(c1ccc2c(c1)OCCO2)C1CCN(c2ncnc3sccc23)CC1 show?
Result: 6.21
